From: a melting point compilation (Tetko et al.)

I'd be grateful if you could share measured melting point for these entries.

These solved cases illustrate the format of a correct answer.
Ask: Please indicate melting point recorded for CC(=O)OC1COC(C#N)C(OC(C)=O)C1OC(C)=O (stereo unspecified)
Result: 132 to 135 °C

Ask: Please indicate melting point recorded for `O=Cc1cccc2cccc(C(=O)O)c12`
Result: 160 to 167 °C

Ask: Please indicate melting point recorded for `O=C(O)c1ccc(-c2ncccn2)cc1`
Result: 238 to 240 °C

// input: 3 compounds below; output: melting point for each
1. C[Si]1(c2ccccc2)O[Si](C)(c2ccccc2)O[Si](C)(c2ccccc2)O1 (stereo unspecified)
2. O=C(ON=C(c1cc2ccccc2o1)c1cc2ccccc2o1)c1ccccc1
3. O=C(NCOC(=O)c1ccc(OCNC(=O)c2ccccc2)cc1)c1ccccc1

Result:
1. 100 °C
2. 154 to 155 °C
3. 176 to 178 °C

----------
I'd be grateful if you could share measured melting point for these entries.

These solved cases illustrate the format of a correct answer.
Ask: Please indicate melting point recorded for `O=C(O)CCCc1ccc2ccc3cccc4ccc1c2c34`
Result: 185 to 190 °C

Ask: Please indicate melting point recorded for `O=C(Cl)c1ccc(-c2cccs2)cc1`
Result: 113 to 115 °C

Ask: Please indicate melting point recorded for `OCc1ccccc1Cn1cncn1`
Result: 98 to 100 °C

***
Ask: Please indicate melting point recorded for `CC(=CNNc1nc(C)cc(C)n1)c1ccccn1`
Result: 142 to 145 °C

----------
I'd be grateful if you could share measured melting point for these entries.

These solved cases illustrate the format of a correct answer.
Ask: Please indicate melting point recorded for NC(=O)C1=CNCCC1C(F)(F)F (configuration not stated)
Result: 184 to 187 °C

Ask: Please indicate melting point recorded for `Cc1noc(-c2cccc(Br)c2)n1`
Result: 95 to 96 °C

Ask: Please indicate melting point recorded for `Cc1cc(Br)cc(C)c1N=C=O`
Result: 61 °C

Ask: Please indicate melting point recorded for `Cc1nn(C)c(C)c1N=C=O`
Result: 36 to 40 °C

// input: 3 molecules below; output: melting point for each
1. O=C(O)/C(=C/c1ccccc1)Cc1ccccc1
2. O=S(=O)(Cl)c1sc(Cl)cc1Br
3. O=C(O)C1CNC1

Result:
1. 157 to 158 °C
2. 34 to 36 °C
3. 250 to 292 °C

----------
Observed Property: melting point

These solved cases illustrate the format of a correct answer.
Ask: Please indicate melting point recorded for `O=C(CCl)Nc1ccc(Cl)cc1C(=O)c1ccccc1Cl`
Result: 161 to 163 °C

Ask: Please indicate melting point recorded for `O=C1c2ccc([N+](=O)[O-])cc2C(=O)N1CCCCCCBr`
Result: 83 to 85 °C

Ask: Please indicate melting point recorded for `Cc1ccc(-n2c(C)cc(C(=O)CCl)c2C)cc1`
Result: 81 to 83 °C

Ask: Please indicate melting point recorded for `Cc1cc(Br)c[nH]c1=O`
Result: 171 to 175 °C

// input: 2 compounds below; output: melting point for each
1. Cc1nc2ccc(-c3ccccc3)cc2s1
2. O=C(O)c1ccccc1CS(=O)c1ccccc1 (centres undefined)

Result:
["90 to 95 °C", "185 to 187 °C"]

// input: 3 compounds below; output: melting point for each
1. c1ccc2c(c1)OCCOCCOCCOc1ccccc1OCCOCCOCCO2
2. O=Cc1coc2ccc(Cl)cc2c1=O
3. O=C1c2ccc(C=NO)cc2C(=O)c2c(Cl)c(Cl)c(Cl)c(Cl)c21

Result:
1. 102 to 106 °C
2. 162 to 168 °C
3. 234 to 235 °C
